These data points were gathered from the supplement of paper PMC6555819.

# Tested on: LXRb:RXRa (NR concentration 270 nM, RXRa partner concentration 90 nM)
# EXPERIMENT NOTES: PBM binding z-score (relative to random genomic background probes); higher = stronger binding; sequences stand for … in GC…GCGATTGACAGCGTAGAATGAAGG
READOUT LABEL: PBM binding z-score

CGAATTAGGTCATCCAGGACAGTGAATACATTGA	2.55
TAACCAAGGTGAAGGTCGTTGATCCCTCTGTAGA	1.66
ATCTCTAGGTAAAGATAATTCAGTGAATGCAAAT	0.485
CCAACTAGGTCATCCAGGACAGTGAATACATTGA	2.48
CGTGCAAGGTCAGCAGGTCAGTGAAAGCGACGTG	3.25
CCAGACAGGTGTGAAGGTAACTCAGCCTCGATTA	-0.315
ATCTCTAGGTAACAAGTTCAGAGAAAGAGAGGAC	0.814
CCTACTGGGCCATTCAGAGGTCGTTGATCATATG	0.964

Noted for `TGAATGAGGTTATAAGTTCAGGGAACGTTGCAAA` : its PBM binding z-score reads 1.88

# PBM binding z-score of `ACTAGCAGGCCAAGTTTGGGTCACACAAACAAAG` = 1.17

Notebook: `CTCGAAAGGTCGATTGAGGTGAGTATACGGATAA` , PBM binding z-score read as 2.93

response.value for `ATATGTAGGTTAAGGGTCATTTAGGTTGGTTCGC` (field: PBM binding z-score) = 4.87

----------
PBM binding z-score values by entry
# Test system: PPARa:RXRa (NR concentration 270 nM, RXRa partner concentration 90 nM)
# EXPERIMENT NOTES: PBM binding z-score (relative to random genomic background probes); higher = stronger binding; sequences stand for … in GC…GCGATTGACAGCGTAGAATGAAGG
Just the number.

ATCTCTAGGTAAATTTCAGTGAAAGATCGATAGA	0.102
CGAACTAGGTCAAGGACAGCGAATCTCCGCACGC	4.72
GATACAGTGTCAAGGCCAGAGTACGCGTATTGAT	0.43
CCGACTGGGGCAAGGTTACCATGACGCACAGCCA	1.87
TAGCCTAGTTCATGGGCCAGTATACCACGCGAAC	0.867

Form field PBM binding z-score, entry `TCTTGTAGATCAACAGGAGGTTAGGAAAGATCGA` : 0.641

// PBM binding z-score value for `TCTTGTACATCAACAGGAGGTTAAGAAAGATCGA` : 1.16

----------
# Tested on: PPARg homodimer (NR concentration 180 nM)
# EXPERIMENT NOTES: PBM binding z-score (relative to random genomic background probes); higher = stronger binding; sequences stand for … in GC…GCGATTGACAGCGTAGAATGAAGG
Use Met when the recorded PBM binding z-score is no lower than 2; use Not met when it is lower.

# example entries with known answers
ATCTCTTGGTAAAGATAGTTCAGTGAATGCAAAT	Not met
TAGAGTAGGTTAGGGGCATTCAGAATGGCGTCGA	Not met
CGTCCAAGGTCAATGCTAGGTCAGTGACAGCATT	Met

Qu. Determine whether measured PBM binding z-score meets or exceeds 2 for `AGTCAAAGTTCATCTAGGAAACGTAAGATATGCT`
Ans. Met

Qu. Form field: PBM binding z-score at least 2? Entry: `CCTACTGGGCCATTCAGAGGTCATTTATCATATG`
Ans. Met

Qu. Check if PBM binding z-score >= 2 (inclusive). Item: `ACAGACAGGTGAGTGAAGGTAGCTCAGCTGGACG`
Ans. Not met

Qu. hey, is PBM binding z-score for this one >= 2? `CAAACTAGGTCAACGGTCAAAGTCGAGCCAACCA`
Ans. Met

Qu. In plain terms: is recorded PBM binding z-score at least 2 for `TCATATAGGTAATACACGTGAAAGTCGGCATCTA` ?
Ans. Not met

Qu. Decide: is the reported value of PBM binding z-score for `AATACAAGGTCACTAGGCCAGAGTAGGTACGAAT` equal to or greater than 2?
Ans. Met
